- ASSAY: Concentration inhibiting [3H]TdR incorporation in Yoshida sarcoma tumor cells in vitro in rats
- Assay type: functional, cell-based, Rattus norvegicus
Listing of entries alongside the reported IC50.
Expressed in µM, but write only the number.

Below, 3 molecules whose answers are already recorded.
COC1C(C)OC(O[C@@H]2c3c(cc4c(c3O)C(=O)c3c(O)cccc3C4=O)C(=O)[C@@](C)(O)[C@H]2OC)C(OC)C1OC (stereo partly drawn)	4.7
CO[C@H]1[C@H](O)c2c(cc3c(c2O)C(=O)c2c(O)cccc2C3=O)C(=O)[C@@]1(C)O	0.6
COC1C(O[C@@H]2c3c(cc4c(c3O)C(=O)c3c(O)cccc3C4=O)C(=O)[C@@](C)(O)[C@H]2OC)OC(C)C(O)C1O (stereo partly drawn)	2.2

Name the recorded IC50 for COC1C(O[C@@H]2c3c(cc4c(c3O)C(=O)c3c(O)cccc3C4=O)C(=O)[C@@](C)(O)[C@H]2OC)OC(C)C(O)C1O[Si](C)(C)C(C)(C)C (stereo partly drawn) .
1.4

Data request, read-out IC50, for COC1C(O[C@@H]2c3c(cc4c(c3O)C(=O)c3c(O)cccc3C4=O)C(=O)[C@](C)(O)[C@H]2OC)OC(C)C(O)C1O (stereo partly drawn)
1

====

- SUBJECT OF TEST: Serine protease 1 (Homo sapiens) (UniProt P07477)
- Sequence (P07477 whole entry): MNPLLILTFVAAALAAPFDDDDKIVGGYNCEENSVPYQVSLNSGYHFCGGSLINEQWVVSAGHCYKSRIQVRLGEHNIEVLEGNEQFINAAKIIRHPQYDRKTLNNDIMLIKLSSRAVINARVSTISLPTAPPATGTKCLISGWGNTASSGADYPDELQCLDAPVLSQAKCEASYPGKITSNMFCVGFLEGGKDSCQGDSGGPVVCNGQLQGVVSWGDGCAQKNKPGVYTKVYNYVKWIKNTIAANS
- ASSAY: Inhibitory activity against trypsin at 10e-5 M; NI = no inhibition
Calls of active or inactive are those of the source. The calls are words filed in the database; no cut-off is given here.
MEASURE NAME: inhibition

Sample records with inhibition:
COC1C(C)OC(O[C@@H]2c3c(cc4c(c3O)C(=O)c3c(O)cccc3C4=O)C(=O)[C@@](C)(O)[C@H]2OC)C(OC)C1OC (some centres not stated)	inactive
COC1C(O[C@@H]2c3c(cc4c(c3O)C(=O)c3c(O)c(N(C)C)cc(N(C)C)c3C4=O)C(=O)[C@@](C)(O)[C@H]2OC)OC(C)C(O)C1O (some centres not stated)	inactive
CCOP(=O)(OCC)O[C@]1(C)C(=O)c2cc3c(c(O)c2[C@@H](OC2OC(C)C(O)C(O)C2OC)[C@@H]1OC)C(=O)c1c(O)cccc1C3=O (some centres not stated)	inactive
COC1C(O[C@@H]2c3c(cc4c(c3O)C(=O)c3c(O)cccc3C4=O)C(=O)[C@@](C)(O)[C@H]2OC)OC(C)C(OC(C)=O)C1OC(C)=O (some centres not stated)	inactive
COc1cccc2c1C(=O)c1c(O)c3c(c(O)c1C2=O)C[C@@](O)(C(C)=O)C[C@@H]3O[C@H]1C[C@H](N)[C@H](O)[C@H](C)O1 [DAUNORUBICIN]	inactive

Dear colleague, I am looking for the recorded inhibition of the following compound: COC1C(O[C@@H]2c3c(cc4c(c3O)C(=O)c3c(O)cccc3C4=O)C(=O)[C@@](C)(O)[C@H]2OC)OC(C)C(O)C1O (some centres not stated)
inactive

Could you tell me which inhibition is on file for COC1C(O[C@@H]2c3c(cc4c(c3O)C(=O)c3c(O)cccc3C4=O)C(=O)[C@@](C)(O)[C@H]2OC)OC(C)C(O)C1O[Si](C)(C)C(C)(C)C (some centres not stated) ?
inactive

====

- SUBJECT OF TEST: Pancreatic elastase (Sus scrofa) (UniProt P08419+P00772)
- ASSAY: Inhibition of Pancreatic elastase at 10e-5 M; NI means no inhibition
- Assay type: protein assay
The source made the active and inactive calls. The rule behind the calls is not given here.
MEASURE NAME: inhibition

Worked set:
COC1C(O[C@@H]2c3c(cc4c(c3O)C(=O)c3c(O)cccc3C4=O)C(/N=N/S(=O)(=O)c3ccc(C)cc3)[C@@](C)(O)[C@H]2OC)OC(C)C(O)C1O (stereo partly specified)	inactive
COC1C(O[C@@H]2c3c(cc4c(c3O)C(=O)c3c(O)cccc3C4=O)C(=O)[C@@](C)(O)[C@H]2OC)OC(C)C(O)C1O (stereo partly specified)	inactive
COC1C(C)OC(O[C@@H]2c3c(cc4c(c3O)C(=O)c3c(O)cccc3C4=O)C(=O)[C@@](C)(O)[C@H]2OC)C(OC)C1OC (stereo partly specified)	inactive
COC1C(O[C@@H]2c3c(cc4c(c3O)C(=O)c3c(O)c(N(C)C)cc(N(C)C)c3C4=O)C(=O)[C@@](C)(O)[C@H]2OC)OC(C)C(O)C1O (stereo partly specified)	inactive
COC1C(O[C@@H]2c3c(cc4c(c3O)C(=O)c3c(ccc(N(C)C)c3O)C4=O)C(=O)[C@@](C)(O)[C@H]2OC)OC(C)C(O)C1O (stereo partly specified)	inactive

Please turn your attention to the following entry.
What does the record list as inhibition for CO[C@H]1[C@H](O)c2c(cc3c(c2O)C(=O)c2c(O)cccc2C3=O)C(=O)[C@@]1(C)O ?
inactive
